target: Homeodomain-interacting protein kinase 1 (Homo sapiens); conditions: at 1 µM;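 further: values are mean percent inhibition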
Recorded inhibition, one value per entry.
MEASUREMENT NAME: inhibition (%)

Cc1cc(O)cc(C)c1/C=C/c1cncc(C(=O)N(C)C)c1    4.88
CN1CCN(C(=O)c2ccc(NC(=O)Nc3ccc(N(C)c4ccnc(Nc5ccc(CS(C)(=O)=O)cc5)n4)cc3)cc2)CC1    5.55
Nc1nccc(-c2c(-c3ccc(F)cc3)ncn2CCCN2CCOCC2)n1    -1.48

====

Recorded inhibition, one value per entry.
biological target: Ephrin type-A receptor 4 (Homo sapiens) (UniProt P54764); conditions: at 1 µM
Sequence (P54764 whole entry): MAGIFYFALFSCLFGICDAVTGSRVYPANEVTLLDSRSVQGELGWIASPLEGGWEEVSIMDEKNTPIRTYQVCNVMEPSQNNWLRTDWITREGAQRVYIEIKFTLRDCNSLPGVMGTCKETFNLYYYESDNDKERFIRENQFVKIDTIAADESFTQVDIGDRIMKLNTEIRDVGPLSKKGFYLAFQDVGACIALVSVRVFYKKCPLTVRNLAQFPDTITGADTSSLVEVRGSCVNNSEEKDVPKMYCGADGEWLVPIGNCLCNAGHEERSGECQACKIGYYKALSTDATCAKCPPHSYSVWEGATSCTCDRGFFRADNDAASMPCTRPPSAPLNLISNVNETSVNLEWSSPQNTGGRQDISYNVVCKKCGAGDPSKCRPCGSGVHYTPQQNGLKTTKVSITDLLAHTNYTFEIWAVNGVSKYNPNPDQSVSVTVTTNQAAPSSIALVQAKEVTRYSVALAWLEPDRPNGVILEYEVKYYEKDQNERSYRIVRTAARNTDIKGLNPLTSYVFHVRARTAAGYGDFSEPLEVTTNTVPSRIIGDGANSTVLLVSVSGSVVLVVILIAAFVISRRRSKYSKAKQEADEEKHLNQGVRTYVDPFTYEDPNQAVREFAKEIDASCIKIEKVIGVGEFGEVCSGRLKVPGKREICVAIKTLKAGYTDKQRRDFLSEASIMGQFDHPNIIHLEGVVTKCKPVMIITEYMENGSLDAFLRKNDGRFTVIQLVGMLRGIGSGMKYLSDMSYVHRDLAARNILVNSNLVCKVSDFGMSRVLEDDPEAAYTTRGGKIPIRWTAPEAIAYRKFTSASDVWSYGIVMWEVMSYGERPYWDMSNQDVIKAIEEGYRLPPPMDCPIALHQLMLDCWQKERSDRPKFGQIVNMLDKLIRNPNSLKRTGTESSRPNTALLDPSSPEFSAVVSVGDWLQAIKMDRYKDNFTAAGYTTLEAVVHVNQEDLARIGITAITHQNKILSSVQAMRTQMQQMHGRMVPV
Description: GSK_PKIS: EPHA4 mean inhibition at 1 uM [Nanosyn]
MEASUREMENT NAME: inhibition (%)

Nc1nccc(C#Cc2cncnc2Nc2ccc(OCc3cccc(F)c3)c(Cl)c2)n1    -0.84
Cc1cc(-c2ccccn2)cc(C)c1/C=C/c1cncc(-c2nn[nH]n2)c1    17.3
O=C(Nc1ccc(Oc2ccc3[nH]c(NC(=O)c4ccco4)nc3c2)cc1)Nc1cc(C(F)(F)F)ccc1F    86.9
FC(F)(F)c1ccc(-c2nn3ncccc3c2-c2ccnc(Nc3ccc4c(c3)OCCO4)n2)cc1    21.2
